Reference source for all entries: patent US10208049B2

tested on: Rdh8−/−Abca4−/− mice; assay: SD-OCT grading of retinal degeneration in light-exposed Rdh8−/−Abca4−/− mice; format: in vivo, mouse; conditions: Rdh8−/−Abca4−/− mice, SD-OCT 7 days after 10,000 lux illumination for 30 min at 4 weeks of age; score 5 = no degeneration, 1 = severe; No Treatment 1
Overview of recorded Score OCT for various compounds
API doc: respond with a numeric literal and nothing else, no unit.

# count of solved cases: 2
compound=CC12CC3CC(C)(C1)CC(N)(C3)C2 metric_name="Score OCT" reported_measurement=1.7
compound=NCCCC[C@H](N[C@@H](CCc1ccccc1)C(=O)O)C(=O)N1CCC[C@H]1C(=O)O metric_name="Score OCT" reported_measurement=2.0

Find the measured Score OCT of CCOC(=O)C1=C[C@@H](OC(CC)CC)[C@H](NC(C)=O)[C@@H](N)C1 and report it.
1.3

Find the measured Score OCT of Nc1ccc(C(=O)[O-])cc1.[K+] and report it.
2.3

Find the measured Score OCT of Nc1ccc(C(=O)NCC(=O)[O-])cc1.[Na+] [Aminohippurate Sodium] and report it.
1

Find the measured Score OCT of CC(C)(S)[C@@H](N)C(=O)O and report it.
1.7
